Reference for the values: patent US20240174657A1

Target: CYP2D6 (Homo sapiens, UniProt P10635)
Construct: tissue Eurofins protocol ITEMG232; host or cells: human liver microsomes
Sequence (P10635 whole entry): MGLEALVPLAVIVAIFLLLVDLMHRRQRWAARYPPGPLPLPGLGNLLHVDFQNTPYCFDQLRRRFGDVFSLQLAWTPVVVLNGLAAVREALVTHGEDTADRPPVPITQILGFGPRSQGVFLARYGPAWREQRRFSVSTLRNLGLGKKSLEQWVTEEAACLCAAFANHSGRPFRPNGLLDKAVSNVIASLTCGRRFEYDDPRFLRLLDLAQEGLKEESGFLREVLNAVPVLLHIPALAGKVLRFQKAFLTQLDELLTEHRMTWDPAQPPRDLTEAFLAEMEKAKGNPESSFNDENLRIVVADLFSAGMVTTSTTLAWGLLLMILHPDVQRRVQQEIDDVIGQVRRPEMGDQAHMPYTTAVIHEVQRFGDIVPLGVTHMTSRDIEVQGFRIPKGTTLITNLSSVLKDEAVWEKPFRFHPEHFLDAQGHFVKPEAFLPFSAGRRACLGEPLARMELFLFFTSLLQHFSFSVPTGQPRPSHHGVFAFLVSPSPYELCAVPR
Test: CYP inhibition in human liver microsomes, dextromethorphan substrate
Assay type: in vitro ADME
Conditions: probe dextromethorphan, read-out: CYP2D6 Inh %
Observed Property: inhibition at 10 µM (%)

Sample records with inhibition at 10 µM:
| Compound | Unit String | inhibition at 10 µM |
| --- | --- | --- |
| Cc1nccn1Cc1ccc(-c2cc(CC(C)C)sc2S(=O)(=O)NC(=O)NCCO)c(F)c1 [Example 4] | % | 7.6 |
| Cc1nccn1Cc1ccc(-c2cc(CC(C)C)sc2S(=O)(=O)NC(=O)NCCO)cc1F [Example 1] | % | 5.3 |

[a] CC(C)Cc1cc(-c2ccc(Cn3ccnc3C(C)(C)C)c(F)c2)c(S(=O)(=O)NC(=O)NCC(C)(C)O)s1 [Example 7]
[b] Cc1nccn1Cc1ccc(-c2cc(CC(C)C)sc2S(=O)(=O)NC(=O)NCC(C)(C)O)cc1F [Example 3]
Exercise: Choose between a and b : whose measured inhibition at 10 µM value is numerically larger? Please respond with the label that marks your chosen entry.
Solution: b

---

Item-by-item account of half-life at 1 uM
Test: Metabolic stability in pooled human liver microsomes
Assay type: in vitro ADME
Settings: pooled human liver microsomes; human liver microsomes 0.5 mg/mL, without NADPH, 1 uM test compound, 37° C.; read-out: T1/2, no NaDPH

// worked examples, half-life at 1 uM included
| Smiles Repr | half-life at 1 uM |
| --- | --- |
| CCc1nccn1Cc1ccc(-c2cc(CC(C)C)sc2S(=O)(=O)NC(=O)NCCO)cc1F | > 1 h |
| CC(C)Cc1cc(-c2ccc(Cn3ccnc3C(C)C)c(F)c2)c(S(=O)(=O)NC(=O)NCCO)s1 | > 1 h |
| Cc1nccn1Cc1ccc(-c2cc(CC(C)C)sc2S(=O)(=O)NC(=O)NCCCO)cc1F | > 1 h |

Turning now to a further compound:
Exercise: What value of measured half-life at 1 uM is listed for `Cc1nccn1Cc1c(F)cc(-c2cc(CC(C)C)sc2S(=O)(=O)NC(=O)NCCO)cc1F` ?
Solution: > 1 h

---

Target: CYP2C8 (Homo sapiens, UniProt P10632)
Construct: using isoform-specific substrates incubated with human liver microsomes; tissue Eurofins protocol ITEMG232; host or cells: human liver microsomes
Sequence (P10632 whole entry, canonical isoform): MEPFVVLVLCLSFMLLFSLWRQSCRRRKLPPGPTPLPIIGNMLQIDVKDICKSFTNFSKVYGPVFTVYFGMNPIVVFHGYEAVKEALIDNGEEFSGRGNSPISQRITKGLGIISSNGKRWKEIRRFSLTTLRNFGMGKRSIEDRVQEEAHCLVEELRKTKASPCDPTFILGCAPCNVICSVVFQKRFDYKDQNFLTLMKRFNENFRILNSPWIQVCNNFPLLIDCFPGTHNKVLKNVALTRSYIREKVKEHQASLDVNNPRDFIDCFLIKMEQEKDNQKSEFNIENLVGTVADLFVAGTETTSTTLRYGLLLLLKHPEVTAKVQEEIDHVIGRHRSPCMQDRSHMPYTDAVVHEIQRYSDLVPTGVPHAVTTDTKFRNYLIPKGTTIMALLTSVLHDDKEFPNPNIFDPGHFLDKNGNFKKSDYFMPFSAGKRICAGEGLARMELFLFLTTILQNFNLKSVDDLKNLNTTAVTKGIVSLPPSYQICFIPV
Test: CYP inhibition in human liver microsomes, paclitaxel and amodiaquine substrates
Format: in vitro ADME
Details: probe paclitaxel and amodiaquine, read-out: CYP2C8 Inh %
Observed Property: inhibition at 10 µM (%)

Use the examples below as a reference point.
| Compound | Assay System | Unit String | Numeric Result |
| --- | --- | --- | --- |
| Cc1nccn1Cc1ccc(-c2cc(CC(C)C)sc2S(=O)(=O)NC(=O)NCC(C)(C)O)cc1F [Example 3] | CYP2C8 (Homo sapiens, UniProt P10632) | % | 28 |
| CCc1nccn1Cc1ccc(-c2cc(CC(C)C)sc2S(=O)(=O)NC(=O)NCCO)cc1F [Example 8] | CYP2C8 (Homo sapiens, UniProt P10632) | % | 2.3 |

[A] CC(C)Cc1cc(-c2ccc(Cn3ccnc3C(C)(C)C)c(F)c2)c(S(=O)(=O)NC(=O)NCCO)s1 [Example 6]
[B] Cc1nccn1Cc1ccc(-c2cc(CC(C)C)sc2S(=O)(=O)NC(=O)NCCO)cc1F [Example 1]
Exercise: Param metric = inhibition at 10 µM; output whichever of A , B has the minimum value. To answer, give the label that identifies your chosen option.
Solution: B
